Data provenance is paper PMC9556824.

Record form. Attribute: viability at 100 µM. Fill in for each entry.
System: Hepatocellular carcinoma (HePG2)
Experiment: Antitumor screening using MTT assay
Format: cell-based, human
Conditions: Homo sapiens, Conc. 100 µM, read-out: Average of Relative viability of cells (%)
Give the value, in units of %, as a plain number.

// map C\C(=N/N=C/C=C/c1ccccc1)c1cc2ccccc2o1 to recorded viability at 100 µM (system: Hepatocellular carcinoma (HePG2))
39.4

Param readout= viability at 100 µM; system= Hepatocellular carcinoma (HePG2); entry= COc1ccc(/C=N/N=C(\C)c2cc3ccccc3o2)cc1OC ; returns value.
26.2

Provide value of viability at 100 µM for this record tested with Hepatocellular carcinoma (HePG2): COc1ccccc1/C=N/N=C(\C)c1cc2ccccc2o1
38.1

Reported viability at 100 µM for Hepatocellular carcinoma (HePG2), given O=C(/C=C/N1CCCCC1)c1cc2ccccc2o1 ?
15.3

Item C/C(=N\NC(=S)Nc1ccc(Cl)cc1)c1cc2ccccc2o1 with Hepatocellular carcinoma (HePG2) - viability at 100 µM?
13.2

Could you share what viability at 100 µM was measured for C/C(=N\NC(=O)Nc1ccc(Cl)cc1)c1cc2ccccc2o1 , tested on Hepatocellular carcinoma (HePG2)?
48.1

---

Answer each item with its documented viability at 25 µM.
Test: In vitro cytotoxicity against human normal cell line (MTT)
Format: cell-based
Settings: human, WI38 normal lung fibroblast cells; WI38; Conc. 25 µM; read-out: Average of Relative viability of cells (%)
Write the answer as a number in %, unit excluded.

Given the entry COc1ccccc1/C=N/N=C(\C)c1cc2ccccc2o1 [Compound 10] , report its measured viability at 25 µM.
71.7

Can you share its viability at 25 µM? I mean this compound: COc1ccc(/C=N/N=C(\C)c2cc3ccccc3o2)cc1OC [Compound 9]
74.5

---

Please go through the items and note down their viability at 50 µM.
Test: In vitro cytotoxicity against human normal cell line (MTT)
Format: cell-based
Conditions: human, WI38 normal lung fibroblast cells; WI38; Conc. 50 µM; read-out: Average of Relative viability of cells (%)

So what does the record say about viability at 50 µM for COc1ccccc1/C=N/N=C(\C)c1cc2ccccc2o1 [Compound 10] ?
54.8%

If you can, please state the reported viability at 50 µM value of COc1ccc(/C=N/N=C(\C)c2cc3ccccc3o2)cc1OC [Compound 9] .
60.6%

---

Test system: Hepatocellular carcinoma (HePG2)
Experiment: Antitumor screening using MTT assay
Type: cell-based, human
Details: Homo sapiens, Conc. 25 µM, read-out: Average of Relative viability of cells (%)
The label is Met for viability at 25 µM below 60% and Not met for viability at 25 µM equal to or exceeding 60%.

is_below(viability at 25 µM, 60%) for C/C(=N\NC(=O)Nc1ccc(Cl)cc1)c1cc2ccccc2o1 [Compound 7] ?
Not met

Quick check: viability at 25 µM of COc1ccccc1/C=N/N=C(\C)c1cc2ccccc2o1 [Compound 10] under 60%?
Not met

Hi there! Is viability at 25 µM for C\C(=N/N=C/C=C/c1ccccc1)c1cc2ccccc2o1 [Compound 12] below 60%, do you know?
Not met

Dear colleague, could you confirm whether viability at 25 µM of COc1ccc(/C=N/N=C(\C)c2cc3ccccc3o2)cc1OC [Compound 9] falls below 60%? Thanks.
Met

Strictly below 60%: is that where viability at 25 µM of O=C(/C=C/N1CCCCC1)c1cc2ccccc2o1 [Compound 5] sits?
Met

Lab note: viability at 25 µM threshold 60%. Does this compound come in strictly under it? C/C(=N\NC(=S)Nc1ccc(Cl)cc1)c1cc2ccccc2o1 [Compound 8]
Met
